# credit: paper PMC10163056

# assay_system: UniProt P12931
# Sequence (P12931 2-536): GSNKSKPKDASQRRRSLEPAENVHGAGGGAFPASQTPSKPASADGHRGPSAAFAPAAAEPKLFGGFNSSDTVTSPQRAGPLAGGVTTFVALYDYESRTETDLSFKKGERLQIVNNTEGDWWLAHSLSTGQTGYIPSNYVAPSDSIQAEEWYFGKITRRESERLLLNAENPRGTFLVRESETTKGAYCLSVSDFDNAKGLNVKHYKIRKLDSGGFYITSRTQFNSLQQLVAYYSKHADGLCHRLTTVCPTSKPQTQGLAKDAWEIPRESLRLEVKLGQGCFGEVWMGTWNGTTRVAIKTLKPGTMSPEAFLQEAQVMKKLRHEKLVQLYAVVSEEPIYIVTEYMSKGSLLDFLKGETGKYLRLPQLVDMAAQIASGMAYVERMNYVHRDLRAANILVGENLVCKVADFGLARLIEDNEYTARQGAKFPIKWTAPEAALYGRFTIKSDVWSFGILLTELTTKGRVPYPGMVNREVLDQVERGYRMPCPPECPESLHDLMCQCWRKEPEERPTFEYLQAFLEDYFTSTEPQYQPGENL
# measurement_protocol: Kinase-Lumi luminescent kinase assay; also in vitro kinase assay with recombinant SRC and STAT3, bead pull-down of recombinant protein, CETSA in AGS and HGC27 cells
# Type: biochemical
Structures can show the parent of a compound that is named as a salt.
measurement_label: pIC50
pIC50 here is simply -log10 of the concentration when that concentration is written in mol/L.

Incoming: Item Cc1ccc(Sc2ccccc2N2CCNCC2)c(C)c1 [vortioxetine hydrobromide] has what recorded pIC50?
Outgoing: 5.19
